System: CAKI-1 renal
Test: NCI tumour cell line growth inhibition, 48 h
Test readout: TGI

Dear colleague, could you please provide TGI for the compounds listed below?
1. CCN1CCC(O)(/C=C/c2ccccc2)C(C(=O)/C=C/c2ccccc2)C1 (stereo not drawn)
2. CCC(C)N1CN(c2ccccc2)C2(CCN(CCCC3(c4ccc(F)cc4)OCCO3)CC2)C1=O (stereo not drawn)
3. CCCCOc1ccc(S(=O)(=O)/N=C(\NO)Nc2ccc(Cl)cc2)cc1
4. NC1=Nc2ccccc2Sc2ccccc21
5. C=C(CN1CCN(c2ccc(F)c(Cl)c2)CC1)c1ccc(C(=O)Nc2ccccc2N)cc1
6. Cc1cc(OCc2nnc3n2N=C(c2cc(F)c(Cl)cc2Cl)/C(=C/c2ccc(-c4ccc(Cl)cc4)o2)S3)ccc1Cl
7. CC1C(c2ccccc2)NC(c2ccccc2)CC1(N)C#N (stereo not drawn)
8. O=[N+]([O-])c1ccc2nc(-c3ccc(Cl)cc3)[nH]c2c1

Result ::
1. 6.44 µM
2. > 68.3 µM
3. 23.2 µM
4. > 100 µM
5. 77.8 µM
6. > 50 µM
7. > 100 µM
8. 93.9 µM
